The origin of these recorded values is patent US12630507B2.

# assay-summary: Pharmacokinetics test, oral capsules, plasma concentration by LC-MS/MS
# Assay type: in vivo
# experimental-parameters: male Beagle dogs, oral capsule, 5 mg/kg
measured-parameter: AUClast (ng·h/mL)

Some solved entries appear below for comparison.
Annotate the molecule NC(=O)[C@@H]1C[C@H](F)CN1Cc1ccc(OCc2cccc(F)c2)cc1 [Example 9] with its measured AUClast.
450

Annotate the molecule NC(=O)[C@@H]1C[C@H](F)CN1Cc1ccc(OCc2cccc(F)c2)cc1 [Example 10] with its measured AUClast.
470

Annotate the molecule NC(=O)[C@@H]1C[C@H](F)CN1Cc1ccc(OCc2cccc(F)c2)cc1 [Example 2] with its measured AUClast.
939

I: NC(=O)[C@@H]1C[C@H](F)CN1Cc1ccc(OCc2cccc(F)c2)cc1 [Compound represented by formula (I)]
II: NC(=O)[C@@H]1C[C@H](F)CN1Cc1ccc(OCc2cccc(F)c2)cc1 [Example 8]
// compare measured AUClast, left I , right II , return larger Field: selected label. Fill in the label of the entry you choose.
I
